# assay system: PDIA3 (Homo sapiens, UniProt P30101)
# Construct: made in house; host or cells: E. coli BL21 (vector pET21)
# Sequence (P30101 25-505): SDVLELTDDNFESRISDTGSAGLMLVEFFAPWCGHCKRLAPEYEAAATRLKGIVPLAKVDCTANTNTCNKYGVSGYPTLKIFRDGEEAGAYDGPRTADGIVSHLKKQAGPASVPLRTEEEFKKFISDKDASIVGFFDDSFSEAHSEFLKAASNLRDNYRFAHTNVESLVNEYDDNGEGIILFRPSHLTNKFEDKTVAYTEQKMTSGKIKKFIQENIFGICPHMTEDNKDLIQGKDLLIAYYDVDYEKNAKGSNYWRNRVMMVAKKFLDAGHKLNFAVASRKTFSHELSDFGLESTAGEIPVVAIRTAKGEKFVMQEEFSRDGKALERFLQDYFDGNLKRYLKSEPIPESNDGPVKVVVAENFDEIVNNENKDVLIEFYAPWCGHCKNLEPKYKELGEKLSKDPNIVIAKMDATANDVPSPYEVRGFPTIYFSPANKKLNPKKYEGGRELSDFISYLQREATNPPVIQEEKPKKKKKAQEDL
# test description: Fluorescence quenching titration of PDIA3 intrinsic fluorescence
# Type: binding
# experimental parameters: 0.5∗10^−6 M PDIA3 in reduced conditions, pH 7.4, 25°C, flavonoid 0 to 10∗10^−6 M; mean and standard deviation
# Experimental: Quantitative analysis of the interaction between individual flavonoids and PDIA3 was performed by fluorimetric titration. […] Fluorescence spectra of appropriate blanks (flavonoids without proteins) were recorded under the same experimental conditions and subtracted from the corresponding flavonoid-protein system to correct the fluorescence background. […]
measured parameter: Stern-Volmer constant (K SV) (M⁻¹)
Return type: number; implicit unit M⁻¹.

Check out these entries, answers already filled in.
molecule	units	Stern-Volmer constant (K SV)
O=c1cc(-c2ccc(O)cc2)oc2cc(O)cc(O)c12 [Apigenin, apigenin]	M⁻¹	54332
O=c1cc(-c2ccc(O)c(O)c2)oc2cc(O[C@@H]3O[C@H](CO)[C@@H](O)[C@H](O)[C@H]3O)cc(O)c12 [Luteolin-7-glucoside, luteolin-7-glucoside]	M⁻¹	31601
O=c1c(O)c(-c2ccc(O)cc2O)oc2cc(O)cc(O)c12 [Morin, morin]	M⁻¹	24063
O=c1cc(-c2ccc(O)cc2)oc2cc(O[C@@H]3O[C@H](CO)[C@@H](O)[C@H](O)[C@H]3O)cc(O)c12 [Apigenin-7-glucoside, apigenin-7-glucoside]	M⁻¹	43961
COc1ccc(-c2cc(=O)c3cc(OC)ccc3o2)c(OC)c1 [Trimethoxyflavone, 6,2′,4′-trimethoxyflavone]	M⁻¹	22209
O=c1c(-c2ccc(O)cc2)coc2cc(O)cc(O)c12 [Genistein, genistein]	M⁻¹	22953

Memo: O=c1c(O)c(-c2ccc(O)cc2)oc2cc(O)cc(O)c12 [Kaempferol, kaempferol] , reported Stern-Volmer constant (K SV): 28423
